Biological target: Prostaglandin G/H synthase 1 (Ovis aries, UniProt P05979)
Sequence (P05979 whole entry): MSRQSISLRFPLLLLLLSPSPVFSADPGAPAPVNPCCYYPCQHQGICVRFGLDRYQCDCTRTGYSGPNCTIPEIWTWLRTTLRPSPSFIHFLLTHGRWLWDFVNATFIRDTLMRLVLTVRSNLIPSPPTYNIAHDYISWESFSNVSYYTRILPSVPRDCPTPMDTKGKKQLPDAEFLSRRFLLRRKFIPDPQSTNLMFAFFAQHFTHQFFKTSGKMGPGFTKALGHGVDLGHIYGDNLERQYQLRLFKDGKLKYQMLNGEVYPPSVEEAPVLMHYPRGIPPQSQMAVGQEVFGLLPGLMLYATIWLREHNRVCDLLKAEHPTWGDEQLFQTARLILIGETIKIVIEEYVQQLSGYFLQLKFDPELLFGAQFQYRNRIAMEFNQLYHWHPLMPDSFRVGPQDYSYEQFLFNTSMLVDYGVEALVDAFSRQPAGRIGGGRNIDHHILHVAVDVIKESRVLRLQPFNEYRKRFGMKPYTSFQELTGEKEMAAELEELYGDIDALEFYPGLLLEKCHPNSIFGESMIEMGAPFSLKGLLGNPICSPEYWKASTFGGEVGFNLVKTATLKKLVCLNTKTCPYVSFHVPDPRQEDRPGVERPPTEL
Reported IC50 is given for each of the following compounds.
READOUT_NAME: IC50 (µM)

[[record]]
item_smiles = "CSc1nnc(-c2cc(C(C)(C)C)c(O)c(C(C)(C)C)c2)o1"
tgt = "Prostaglandin G/H synthase 1 (Ovis aries, UniProt P05979)"
measurement_qualifier = "="
reported = 12

[[record]]
item_smiles = "COc1nc(-c2cc(C(C)(C)C)c(O)c(C(C)(C)C)c2)ns1"
tgt = "Prostaglandin G/H synthase 1 (Ovis aries, UniProt P05979)"
measurement_qualifier = "="
reported = 24

[[record]]
item_smiles = "COc1c(C(C)(C)C)cc(-c2nnc(S)s2)cc1C(C)(C)C"
tgt = "Prostaglandin G/H synthase 1 (Ovis aries, UniProt P05979)"
measurement_qualifier = ">"
reported = 20

[[record]]
item_smiles = "CC(C)(C)c1cc(-c2nnc(S)s2)cc(C(C)(C)C)c1O"
tgt = "Prostaglandin G/H synthase 1 (Ovis aries, UniProt P05979)"
measurement_qualifier = "="
reported = 20

[[record]]
item_smiles = "COC(=O)CCSc1nnc(-c2cc(C(C)(C)C)c(O)c(C(C)(C)C)c2)s1"
tgt = "Prostaglandin G/H synthase 1 (Ovis aries, UniProt P05979)"
measurement_qualifier = ">"
reported = 20

[[record]]
item_smiles = "CNc1nnc(-c2cc(C(C)(C)C)c(O)c(C(C)(C)C)c2)s1"
tgt = "Prostaglandin G/H synthase 1 (Ovis aries, UniProt P05979)"
measurement_qualifier = "="
reported = 0.52

[[record]]
item_smiles = "CC(C)(C)c1cc(-c2nnc(SCCC(=O)O)s2)cc(C(C)(C)C)c1O"
tgt = "Prostaglandin G/H synthase 1 (Ovis aries, UniProt P05979)"
measurement_qualifier = ">"
reported = 20

[[record]]
item_smiles = "CC(C)(C)c1cc(-c2nnc(SCc3ccccc3)s2)cc(C(C)(C)C)c1O"
tgt = "Prostaglandin G/H synthase 1 (Ovis aries, UniProt P05979)"
measurement_qualifier = ">"
reported = 20

[[record]]
item_smiles = "CC(C)Sc1nnc(-c2cc(C(C)(C)C)c(O)c(C(C)(C)C)c2)s1"
tgt = "Prostaglandin G/H synthase 1 (Ovis aries, UniProt P05979)"
measurement_qualifier = ">"
reported = 20

[[record]]
item_smiles = "CSc1nnc(-c2nc(C(C)(C)C)c(O)c(C(C)(C)C)n2)s1"
tgt = "Prostaglandin G/H synthase 1 (Ovis aries, UniProt P05979)"
measurement_qualifier = "="
reported = 0.097

[[record]]
item_smiles = "CCN(CC)CCSc1nnc(-c2cc(C(C)(C)C)c(O)c(C(C)(C)C)c2)s1"
tgt = "Prostaglandin G/H synthase 1 (Ovis aries, UniProt P05979)"
measurement_qualifier = ">"
reported = 20

[[record]]
item_smiles = "CC(C)(C)c1cc(-c2nsc(N=C(N)N)n2)cc(C(C)(C)C)c1O"
tgt = "Prostaglandin G/H synthase 1 (Ovis aries, UniProt P05979)"
measurement_qualifier = "="
reported = 24

[[record]]
item_smiles = "CCSc1nnc(-c2cc(C(C)(C)C)c(O)c(C(C)(C)C)c2)o1"
tgt = "Prostaglandin G/H synthase 1 (Ovis aries, UniProt P05979)"
measurement_qualifier = ">"
reported = 20

[[record]]
item_smiles = "CC(C)(C)c1cc(-c2nsc(NS(C)(=O)=O)n2)cc(C(C)(C)C)c1O"
tgt = "Prostaglandin G/H synthase 1 (Ovis aries, UniProt P05979)"
measurement_qualifier = ">"
reported = 20

[[record]]
item_smiles = "CCSc1nnc(-c2cc(C(C)(C)C)c(O)c(C(C)(C)C)c2)s1"
tgt = "Prostaglandin G/H synthase 1 (Ovis aries, UniProt P05979)"
measurement_qualifier = "="
reported = 100

[[record]]
item_smiles = "CC(C)(C)c1cc(-c2nnc(NC#N)s2)cc(C(C)(C)C)c1O"
tgt = "Prostaglandin G/H synthase 1 (Ovis aries, UniProt P05979)"
measurement_qualifier = ">"
reported = 20

[[record]]
item_smiles = "CC(C)(C)c1cc(-c2nnc(NN)s2)cc(C(C)(C)C)c1O"
tgt = "Prostaglandin G/H synthase 1 (Ovis aries, UniProt P05979)"
measurement_qualifier = "="
reported = 17

[[record]]
item_smiles = "CSc1nnc(-c2cc(C(C)(C)C)c(O)c(C(C)(C)C)c2)s1"
tgt = "Prostaglandin G/H synthase 1 (Ovis aries, UniProt P05979)"
measurement_qualifier = "="
reported = 0.51


###

Record set of IC50 for target or system Prostaglandin G/H synthase 2 (Mus musculus).
READOUT_NAME: IC50 (nM)

[[record]]
item_smiles = "CC(C)(C)c1cc(-c2nsc(N=C(N)N)n2)cc(C(C)(C)C)c1O"
tgt = "Prostaglandin G/H synthase 2 (Mus musculus)"
readout_name = "IC50"
unit_of_measurement = "nM"
measurement_qualifier = ">"
reported = 20000

[[record]]
item_smiles = "CSc1nnc(-c2cc(C(C)(C)C)c(O)c(C(C)(C)C)c2)o1"
tgt = "Prostaglandin G/H synthase 2 (Mus musculus)"
readout_name = "IC50"
unit_of_measurement = "nM"
measurement_qualifier = "="
reported = 140

[[record]]
item_smiles = "CC(C)(C)c1cc(-c2nnc(NC#N)o2)cc(C(C)(C)C)c1O"
tgt = "Prostaglandin G/H synthase 2 (Mus musculus)"
readout_name = "IC50"
unit_of_measurement = "nM"
measurement_qualifier = "="
reported = 390


###

Reported IC50 is given for each of the following compounds.
Target: Prostaglandin G/H synthase 2 (Mus musculus, UniProt Q05769)
Sequence (Q05769 whole entry): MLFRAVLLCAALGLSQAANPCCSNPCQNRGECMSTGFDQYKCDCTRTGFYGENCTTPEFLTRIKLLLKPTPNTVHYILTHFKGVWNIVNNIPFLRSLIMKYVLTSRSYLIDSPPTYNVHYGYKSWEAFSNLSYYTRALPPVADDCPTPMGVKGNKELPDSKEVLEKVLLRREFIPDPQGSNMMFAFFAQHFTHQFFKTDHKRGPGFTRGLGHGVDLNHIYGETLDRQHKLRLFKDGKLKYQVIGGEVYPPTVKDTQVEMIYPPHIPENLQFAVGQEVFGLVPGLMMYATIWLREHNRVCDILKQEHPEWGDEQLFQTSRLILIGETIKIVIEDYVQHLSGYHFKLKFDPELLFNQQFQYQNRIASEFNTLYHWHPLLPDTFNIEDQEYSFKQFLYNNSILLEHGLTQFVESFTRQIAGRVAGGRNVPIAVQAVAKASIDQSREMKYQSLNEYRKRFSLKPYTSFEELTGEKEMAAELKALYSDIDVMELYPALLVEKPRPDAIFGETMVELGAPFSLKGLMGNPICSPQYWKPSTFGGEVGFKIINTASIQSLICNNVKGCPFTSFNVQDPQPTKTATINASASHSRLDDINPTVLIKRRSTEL
READOUT_NAME: IC50 (nM)

[[record]]
item_smiles = "CSc1nnc(-c2cc(C(C)C)c(O)c(C(C)C)c2)s1"
readout_name = "IC50"
measurement_qualifier = ">"
reported = 20000

[[record]]
item_smiles = "CC(C)(C)c1cc(-c2nnc(O)o2)cc(C(C)(C)C)c1O"
readout_name = "IC50"
measurement_qualifier = ">"
reported = 20000

[[record]]
item_smiles = "CC(C)(C)c1cc(-c2nc(=O)s[nH]2)cc(C(C)(C)C)c1O"
readout_name = "IC50"
measurement_qualifier = "="
reported = 18

[[record]]
item_smiles = "CCSc1nnc(-c2cc(C(C)C)c(O)c(C(C)C)c2)s1"
readout_name = "IC50"
measurement_qualifier = "="
reported = 1300

[[record]]
item_smiles = "COc1c(C(C)(C)C)cc(-c2nnc(SC)s2)cc1C(C)(C)C"
readout_name = "IC50"
measurement_qualifier = "="
reported = 12

[[record]]
item_smiles = "CC(C)(C)c1cc(-c2noc(NC#N)n2)cc(C(C)(C)C)c1O"
readout_name = "IC50"
measurement_qualifier = "="
reported = 1400


###

Target: Prostaglandin G/H synthase 2 (Mus musculus, UniProt Q05769)
Sequence (Q05769 whole entry): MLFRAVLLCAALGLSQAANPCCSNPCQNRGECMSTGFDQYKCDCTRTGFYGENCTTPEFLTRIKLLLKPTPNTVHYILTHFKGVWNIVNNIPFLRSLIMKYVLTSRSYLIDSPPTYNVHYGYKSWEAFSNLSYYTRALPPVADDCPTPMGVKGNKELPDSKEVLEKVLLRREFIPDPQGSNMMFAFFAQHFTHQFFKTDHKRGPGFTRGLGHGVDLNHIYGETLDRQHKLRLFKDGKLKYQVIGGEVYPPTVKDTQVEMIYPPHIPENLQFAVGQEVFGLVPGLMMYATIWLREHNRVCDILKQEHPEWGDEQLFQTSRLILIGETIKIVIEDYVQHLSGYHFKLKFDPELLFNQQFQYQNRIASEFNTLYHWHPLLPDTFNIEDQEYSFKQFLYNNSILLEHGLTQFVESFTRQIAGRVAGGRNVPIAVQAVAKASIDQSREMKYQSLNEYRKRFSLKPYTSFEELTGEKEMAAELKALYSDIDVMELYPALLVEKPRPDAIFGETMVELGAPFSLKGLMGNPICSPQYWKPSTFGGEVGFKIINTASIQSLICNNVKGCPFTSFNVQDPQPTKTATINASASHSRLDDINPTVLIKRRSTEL
Reported IC50 is given for each of the following molecules.
READOUT_NAME: IC50 (nM)

[[record]]
item_smiles = "CC(C)(C)c1cc(-c2nnc(N=C(N)N)s2)cc(C(C)(C)C)c1O"
readout_name = "IC50"
unit_of_measurement = "nM"
measurement_qualifier = "="
reported = 210

[[record]]
item_smiles = "CC(C)(C)c1cc(-c2nnc(O)s2)cc(C(C)(C)C)c1O"
readout_name = "IC50"
unit_of_measurement = "nM"
measurement_qualifier = "="
reported = 240

[[record]]
item_smiles = "CCSc1nnc(-c2nc(C(C)(C)C)c(O)c(C(C)(C)C)n2)s1"
readout_name = "IC50"
unit_of_measurement = "nM"
measurement_qualifier = "="
reported = 18

[[record]]
item_smiles = "CC(C)(C)c1cc(-c2nnc(N)s2)cc(C(C)(C)C)c1O"
readout_name = "IC50"
unit_of_measurement = "nM"
measurement_qualifier = "="
reported = 110

[[record]]
item_smiles = "CC(C)(C)c1cc(-c2nnc(NN)s2)cc(C(C)(C)C)c1O"
readout_name = "IC50"
unit_of_measurement = "nM"
measurement_qualifier = "="
reported = 3700

[[record]]
item_smiles = "CSc1nnc(-c2cc(C(C)(C)C)c(O)c(C(C)(C)C)c2)s1"
readout_name = "IC50"
unit_of_measurement = "nM"
measurement_qualifier = "="
reported = 9

[[record]]
item_smiles = "CCSc1nnc(-c2cc(C(C)(C)C)c(O)c(C(C)(C)C)c2)s1"
readout_name = "IC50"
unit_of_measurement = "nM"
measurement_qualifier = "="
reported = 180

[[record]]
item_smiles = "CNc1nnc(-c2cc(C(C)(C)C)c(O)c(C(C)(C)C)c2)s1"
readout_name = "IC50"
unit_of_measurement = "nM"
measurement_qualifier = "="
reported = 690

[[record]]
item_smiles = "CCN(CC)CCSc1nnc(-c2cc(C(C)(C)C)c(O)c(C(C)(C)C)c2)s1"
readout_name = "IC50"
unit_of_measurement = "nM"
measurement_qualifier = ">"
reported = 20000

[[record]]
item_smiles = "CCSc1nnc(-c2cc(C(C)(C)C)c(O)c(C(C)(C)C)c2)o1"
readout_name = "IC50"
unit_of_measurement = "nM"
measurement_qualifier = "="
reported = 15

[[record]]
item_smiles = "CCCSc1nnc(-c2cc(C(C)C)c(O)c(C(C)C)c2)s1"
readout_name = "IC50"
unit_of_measurement = "nM"
measurement_qualifier = "="
reported = 1500

